- Assay Target: unphosphorylated c-KIT kinase (uKIT, Seq. ID no. 2) (Homo sapiens, UniProt P10721)
- Construct: uKit with N-terminal GST fusion used for screening
- Sequence (P10721 with tags, fused parts or gaps): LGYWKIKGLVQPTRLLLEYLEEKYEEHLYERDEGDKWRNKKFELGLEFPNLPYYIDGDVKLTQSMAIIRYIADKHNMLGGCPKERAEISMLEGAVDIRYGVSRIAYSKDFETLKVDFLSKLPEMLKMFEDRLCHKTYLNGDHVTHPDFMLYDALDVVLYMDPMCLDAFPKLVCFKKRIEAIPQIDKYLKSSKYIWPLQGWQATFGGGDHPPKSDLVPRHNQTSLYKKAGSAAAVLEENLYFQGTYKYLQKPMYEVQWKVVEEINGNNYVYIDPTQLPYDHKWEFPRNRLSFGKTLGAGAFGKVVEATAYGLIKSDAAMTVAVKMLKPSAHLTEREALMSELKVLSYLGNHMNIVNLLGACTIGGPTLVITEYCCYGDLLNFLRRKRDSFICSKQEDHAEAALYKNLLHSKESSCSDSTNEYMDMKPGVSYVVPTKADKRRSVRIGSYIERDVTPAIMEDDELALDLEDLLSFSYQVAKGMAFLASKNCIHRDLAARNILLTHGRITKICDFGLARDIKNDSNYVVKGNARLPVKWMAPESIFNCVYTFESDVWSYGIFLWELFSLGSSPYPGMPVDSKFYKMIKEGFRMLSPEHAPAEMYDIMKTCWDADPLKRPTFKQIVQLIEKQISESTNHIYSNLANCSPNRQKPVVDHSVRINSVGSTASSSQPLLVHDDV
- Assay: uKit kinase enzymatic assay (pyruvate kinase/lactate dehydrogenase coupled)
- Experimental Context: ATP 2000 μM, rate 3 to 4 h
Readout: IC50

Worked cases, answers included:
INSERT INTO assay_data (molecule, readout, value_observed) VALUES
  ('Cc1nc(-n2nc(C(C)(C)C)[nH]c2=O)ccc1Oc1ccnc(-c2cnco2)c1 [Example 39]', 'IC50', '> 1000 nM'),
  ('Cc1nc(-n2nc(Cc3ccccc3)[nH]c2=O)ccc1Oc1ccnc(-c2cnn(C)c2)c1 [Example 2]', 'IC50', '100 to 1000 nM'),
  ('Cc1nc(-n2nc(C3CC3)[nH]c2=O)ccc1Oc1ccnc(-c2cnn(C)c2)c1 [Example 35]', 'IC50', '100 to 1000 nM');

We next turn to a different molecule, shown below.
Q: I am curious: what IC50 value has been reported for Cc1nc(-n2nc(C(C)(C)C)[nH]c2=O)ccc1Oc1ccnc(-c2ccc(N3CCN(C)CC3)nc2)c1 [Example 40] ?
Ans: 100 to 1000 nM
